Attribute: Drug metabolism
protocol-text: Prodrug conversion in human plasma assessed as esterase-mediated estradiol release by measuring saponification level after 10 mins by ELISA method
Format: ADME
details: isolated protein
Give your result in % as a bare value.

Answered cases to consult:
> print(dat)
                                 smiles.str  unit.symbol  reported.result
1  CC(C)(NC(=O)c1ccc(S(N)(=O)=O)cc1)C(=O)O[C@H]1CC[C@H]2[C@@H]3CCc4cc(O)ccc4[C@H]3CC[C@]12C            %               97
2  C[C@]12CC[C@@H]3c4ccc(O)cc4CC[C@H]3[C@@H]1CC[C@@H]2OC(=O)CNC(=O)c1ccc(S(N)(=O)=O)cc1            %               87
3  CC(C)[C@H](NC(=O)c1ccc(S(N)(=O)=O)cc1)C(=O)O[C@H]1CC[C@H]2[C@@H]3CCc4cc(O)ccc4[C@H]3CC[C@]12C            %               89
4  C[C@]12CC[C@@H]3c4ccc(O)cc4CC[C@H]3[C@@H]1CC[C@@H]2OC(=O)[C@H](Cc1ccccc1)NC(=O)c1ccc(S(N)(=O)=O)cc1            %               75

Value of measured Drug metabolism for the entry "C[C@H](NC(=O)c1ccc(S(N)(=O)=O)cc1)C(=O)O[C@H]1CC[C@H]2[C@@H]3CCc4cc(O)ccc4[C@H]3CC[C@]12C" : 70

Value of measured Drug metabolism for the entry "C[C@@H](C(=O)O[C@H]1CC[C@H]2[C@@H]3CCc4cc(O)ccc4[C@H]3CC[C@]12C)N(C)C(=O)c1ccc(S(N)(=O)=O)cc1" : 84

Numbers sourced from ChEMBL document CHEMBL4043217.
